# Assayed Target: ΔF508-CFTR (Homo sapiens, UniProt P13569, DEL508-508)
# Construct: host or cells: CFBE41o-, doxycycline-inducible
# Sequence (P13569 with tags, fused parts or gaps DEL508-508): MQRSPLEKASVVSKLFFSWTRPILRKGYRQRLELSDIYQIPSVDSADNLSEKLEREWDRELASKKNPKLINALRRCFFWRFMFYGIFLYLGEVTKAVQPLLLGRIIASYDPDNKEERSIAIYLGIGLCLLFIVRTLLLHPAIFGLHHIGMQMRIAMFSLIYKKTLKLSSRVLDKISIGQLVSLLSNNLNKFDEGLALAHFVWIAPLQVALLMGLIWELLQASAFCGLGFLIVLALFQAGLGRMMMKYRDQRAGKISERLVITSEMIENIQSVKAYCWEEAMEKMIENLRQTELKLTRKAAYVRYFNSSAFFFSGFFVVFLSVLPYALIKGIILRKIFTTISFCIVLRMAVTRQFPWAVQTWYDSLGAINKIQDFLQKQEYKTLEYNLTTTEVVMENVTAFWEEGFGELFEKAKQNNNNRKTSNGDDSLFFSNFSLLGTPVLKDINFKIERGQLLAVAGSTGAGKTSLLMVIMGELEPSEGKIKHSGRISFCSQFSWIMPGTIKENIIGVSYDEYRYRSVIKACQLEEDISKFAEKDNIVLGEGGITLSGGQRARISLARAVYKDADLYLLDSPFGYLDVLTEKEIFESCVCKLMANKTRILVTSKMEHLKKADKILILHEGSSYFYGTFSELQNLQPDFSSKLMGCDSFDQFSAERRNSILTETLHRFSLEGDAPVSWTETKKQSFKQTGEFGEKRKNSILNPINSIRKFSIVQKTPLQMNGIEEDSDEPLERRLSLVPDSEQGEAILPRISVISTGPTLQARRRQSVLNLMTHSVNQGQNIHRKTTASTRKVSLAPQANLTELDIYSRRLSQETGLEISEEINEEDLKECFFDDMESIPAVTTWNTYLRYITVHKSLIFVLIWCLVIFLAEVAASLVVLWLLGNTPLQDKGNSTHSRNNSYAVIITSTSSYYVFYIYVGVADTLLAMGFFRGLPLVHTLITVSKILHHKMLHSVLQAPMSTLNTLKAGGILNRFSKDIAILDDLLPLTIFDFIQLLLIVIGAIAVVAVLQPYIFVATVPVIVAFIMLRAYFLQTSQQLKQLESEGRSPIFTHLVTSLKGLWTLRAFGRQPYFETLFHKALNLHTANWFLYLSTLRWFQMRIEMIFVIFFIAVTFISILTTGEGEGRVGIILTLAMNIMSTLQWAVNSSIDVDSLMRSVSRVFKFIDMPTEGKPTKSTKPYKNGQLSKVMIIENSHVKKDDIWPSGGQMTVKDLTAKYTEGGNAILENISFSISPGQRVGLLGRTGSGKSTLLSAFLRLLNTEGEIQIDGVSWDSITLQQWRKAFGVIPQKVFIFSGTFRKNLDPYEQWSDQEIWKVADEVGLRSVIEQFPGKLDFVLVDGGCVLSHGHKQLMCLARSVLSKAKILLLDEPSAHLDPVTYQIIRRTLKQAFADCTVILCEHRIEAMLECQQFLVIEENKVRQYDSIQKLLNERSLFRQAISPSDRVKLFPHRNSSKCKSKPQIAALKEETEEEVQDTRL
# Experiment: CFTR cell surface levels using HRP-tagged ΔF508-CFTR expressing CFBE cells, intrinsic corrector capacity
# Assay type: cell-based
# Experimental Parameters: HRP-tagged ΔF508-CFTR expressing CFBE41o- cells; compound alone (intrinsic corrector capacity); 20 hours at 33° C.; read-out: EC50
Readout Label: EC50 (µM)
Give bare numbers, in µM.

q: Record request: EC50 value, item COC[C@@H]1CCCN1C1CCN(S(=O)(=O)NC(=O)c2cc(N3CCC(N4CCOCC4)CC3)c3c(C4CCC4)nn(-c4ccccc4)c3n2)CC1 [Compound 439]
a: 0.55

Dear colleague, could you please provide EC50 for the compounds listed below?
1. CCCN(CC)S(=O)(=O)NC(=O)c1cc(N2CCC(COC)CC2)c2c(C3CCC3)nn(-c3ccccc3)c2n1 [Compound 392]
2. CC(C)N1CCN(c2cc(C(=O)NS(C)(=O)=O)nc3c2c(C2CCC2)nn3-c2ccccc2)CC1 [Compound 270]

a:
0.15
1.49

q: Record request: EC50 value, item CCS(=O)(=O)NC(=O)c1cc(-c2ccc(N(C)C)nc2)c2c(C3CC3)nn(C3CCCCC3)c2n1 [Compound 92]
a: 0.553

Measured values drawn from patent US10259810B2 for this set.
